# Assayed Target: BRD4 (BD1) (Homo sapiens)
# Construct: longer constructs also being possible, preferably amino acids 44-168
# Test: Binding assay BRD4/acetylated peptide H4 (TR-FRET protein-protein interaction assay)
# Run Conditions: BRD4 (BD1) / acetylated histone H4 peptide
# Protocol: To assess the BRD4 binding strength of the substances described in this application, the ability thereof to inhibit the interaction between BRD4 (BD1) and acetylated histone H4 in a dose-dependent manner was quantified. […] In the assay, typically 11 different concentrations of each substance (0.1 nM, 0.33 nM, 1.1 nM, 3.8 nM, 13 nM, 44 nM, 0.15 μM, 0.51 μM, 1.7 μM, 5.9 μM and 20 μM) were analysed as duplicates on the same microtitre plate. […]
pIC50: −log10 of the molar value.
Measurement Kind: pIC50

> print(dat)
                                   molecule  measurement.kind  value.prefix   val
1  CNC(=O)N1N=C(c2ccc(N3CC4(CCS4(=O)=O)C3)cc2)c2cc(OC)c(OC)cc2CC1C (racemic) [Example 3]             pIC50             =  7.70
2  CNC(=O)N1N=C(c2ccc(N3CC4(CN(C(=O)OC(C)(C)C)C4)C3)cc2)c2cc(OC)c(OC)cc2CC1C (racemic) [Example 8]             pIC50             =  6.85
3  CNC(=O)N1N=C(c2ccc(N3CC4(CN(C(=O)OC(C)(C)C)C4)C3)cc2)c2cc(OC)c(OC)cc2C[C@H]1C [Example 8.2]             pIC50             =  5.69
4  CNC(=O)N1N=C(c2ccc(N3CCC4(CCCC4)CC3)cc2)c2cc(OC)c(OC)cc2C[C@H]1C [Example 9.2]             pIC50             <  4.70
5  CNC(=O)N1N=C(c2ccc(N3[C@@H]4CC[C@H]3CC(=O)C4)cc2)c2cc(OC)c(OC)cc2CC1C (mixture of isomers) [Example 6]             pIC50             =  7.52

---

# Assayed Target: BRD4 (BD1) (Homo sapiens, UniProt O60885)
# Construct: longer constructs also being possible, preferably amino acids 44-168
# Test: Binding assay BRD4/acetylated peptide H4 (TR-FRET protein-protein interaction assay)
# Run Conditions: BRD4 (BD1) / acetylated histone H4 peptide
pIC50: −log10 of the molar value.
Measurement Kind: pIC50

> print(dat)
                                    compound                            assayed.target   val
 1  CNC(=O)N1N=C(c2ccc(F)c(N3C[C@@H]4C[C@H]3CN4C)c2)c2cc(OC)c(OC)cc2C[C@H]1C (relative stereo)  BRD4 (BD1) (Homo sapiens, UniProt O60885)  4.78
 2  CNC(=O)N1N=C(c2ccc(N3CC4(C3)CS(=O)(=O)C4)cc2)c2cc(OC)c(OC)cc2CC1C (racemic)  BRD4 (BD1) (Homo sapiens, UniProt O60885)  7.15
 3  CNC(=O)N1N=C(c2cccc(N3CC4(CCS4(=O)=O)C3)c2)c2cc(OC)c(OC)cc2CC1C (racemic)  BRD4 (BD1) (Homo sapiens, UniProt O60885)  6.77
 4  CNC(=O)N1N=C(c2ccc(N3C[C@@H]4C[C@H]3CN4C)cc2)c2cc(OC)c(OC)cc2C[C@H]1C (relative stereo)  BRD4 (BD1) (Homo sapiens, UniProt O60885)  7.15
 5  CNC(=O)N1N=C(c2ccc(N3CC4(CN(Cc5ccccc5)C4)C3)cc2)c2cc(OC)c(OC)cc2CC1C (racemic)  BRD4 (BD1) (Homo sapiens, UniProt O60885)  7.10
 6  CNC(=O)N1N=C(c2ccc(N3CCC4(CCCC4)CC3)cc2)c2cc(OC)c(OC)cc2CC1C (racemic)  BRD4 (BD1) (Homo sapiens, UniProt O60885)  6.60
 7  CNC(=O)N1N=C(c2ccc(N3[C@@H]4CC[C@H]3CC(=O)C4)cc2)c2cc(OC)c(OC)cc2C[C@H]1C  BRD4 (BD1) (Homo sapiens, UniProt O60885)  5.91
 8  CNC(=O)N1N=C(c2ccc(-c3cncc4ccccc34)cc2)c2cc(OC)c(OC)cc2CC1C (racemic)  BRD4 (BD1) (Homo sapiens, UniProt O60885)  7.22
 9  CNC(=O)N1N=C(c2ccc(F)c(N3C[C@@H]4C[C@H]3CN4C)c2)c2cc(OC)c(OC)cc2C[C@@H]1C (relative stereo)  BRD4 (BD1) (Homo sapiens, UniProt O60885)  6.42
10  CNC(=O)N1N=C(c2ccc(N3C(=O)C4CCC3C4)cc2)c2cc(OC)c(OC)cc2CC1C (stereo not drawn)  BRD4 (BD1) (Homo sapiens, UniProt O60885)  7.52
11  CNC(=O)N1N=C(c2ccc(N3CCCC4(COC4)C3)cc2)c2cc(OC)c(OC)cc2CC1C (racemic)  BRD4 (BD1) (Homo sapiens, UniProt O60885)  7.22
12  CNC(=O)N1N=C(c2ccc(N3CC4(COC4)C3)cc2)c2cc(OC)c(OC)cc2C[C@H]1C  BRD4 (BD1) (Homo sapiens, UniProt O60885)  5.87
13  CNC(=O)N1N=C(c2ccc(F)c(N3C[C@@H]4C[C@H]3CN4C)c2)c2cc(OC)c(OC)cc2CC1C (relative stereo)  BRD4 (BD1) (Homo sapiens, UniProt O60885)  6.37
14  CNC(=O)N1N=C(c2ccc(N3CC4(CN(C(=O)OC(C)(C)C)C4)C3)cc2)c2cc(OC)c(OC)cc2C[C@@H]1C  BRD4 (BD1) (Homo sapiens, UniProt O60885)  7.22
15  CNC(=O)N1N=C(c2ccc(N3C[C@H]4CC[C@@H](C3)O4)cc2)c2cc(OC)c(OC)cc2CC1C (mixture of isomers)  BRD4 (BD1) (Homo sapiens, UniProt O60885)  7.52
16  CNC(=O)N1N=C(c2ccc(-c3cccc4ncccc34)cc2)c2cc(OC)c(OC)cc2CC1C (racemic)  BRD4 (BD1) (Homo sapiens, UniProt O60885)  7.22
17  CNC(=O)N1N=C(c2ccc(N3CC4(CCS4(=O)=O)C3)cc2)c2cc(-n3nc(C)cc3C)ccc2C[C@H]1C  BRD4 (BD1) (Homo sapiens, UniProt O60885)  5.83
18  CNC(=O)N1N=C(c2ccc(N3CC4(CCC4)C3)cc2)c2cc(OC)c(OC)cc2CC1C (racemic)  BRD4 (BD1) (Homo sapiens, UniProt O60885)  6.77
19  CNC(=O)N1N=C(c2ccc(N3C4CCC3CC(=O)NC4)cc2)c2cc(OC)c(OC)cc2CC1C (racemic)  BRD4 (BD1) (Homo sapiens, UniProt O60885)  6.92
20  CNC(=O)N1N=C(c2ccc(-c3ccnc4ccccc34)cc2)c2cc(OC)c(OC)cc2CC1C (racemic)  BRD4 (BD1) (Homo sapiens, UniProt O60885)  7.15
21  CNC(=O)N1N=C(c2ccc(N3CCC4(COC4)C3)cc2)c2cc(OC)c(OC)cc2CC1C (racemic)  BRD4 (BD1) (Homo sapiens, UniProt O60885)  7.30
22  CNC(=O)N1N=C(c2ccc(F)c(N3C[C@@H]4C[C@H]3CN4)c2)c2cc(OC)c(OC)cc2CC1C (relative stereo)  BRD4 (BD1) (Homo sapiens, UniProt O60885)  6.39
23  CNC(=O)N1N=C(c2ccc(-c3ccc4c(ccn4C)c3)cc2)c2cc(OC)c(OC)cc2CC1C (racemic)  BRD4 (BD1) (Homo sapiens, UniProt O60885)  7.30
24  CNC(=O)N1N=C(c2ccc(F)c(N3CC4(CCS4(=O)=O)C3)c2)c2cc(OC)c(OC)cc2CC1C (racemic)  BRD4 (BD1) (Homo sapiens, UniProt O60885)  6.60
25  CNC(=O)N1N=C(c2cccc(N3CC4CCC(C3)O4)c2)c2cc(OC)c(OC)cc2CC1C (racemic)  BRD4 (BD1) (Homo sapiens, UniProt O60885)  7.05
26  CNC(=O)N1N=C(c2ccc(N3CC4(COC4)C3)cc2)c2cc(OC)c(OC)cc2CC1C (racemic)  BRD4 (BD1) (Homo sapiens, UniProt O60885)  7.70
27  CNC(=O)N1N=C(c2ccc(N3C[C@@H]4C[C@H]3CN4)cc2)c2cc(OC)c(OC)cc2CC1C (relative stereo)  BRD4 (BD1) (Homo sapiens, UniProt O60885)  6.85
